- System: Coxsackievirus
- ASSAY NAME: inhibition concentration required against coxsackievirus A10 was determined by plaque reduction assay
- Assay type: functional, organism-based
READOUT KIND: IC50 (µM)
Form entry: value (µM) — number only.

Sure, the documented IC50 for `O=C1N(CCCCCOc2ccc(-c3ccc(Cl)cc3)cc2)CCN1c1ccncc1` is 8.61

----------
- System: Coxsackievirus
- ASSAY NAME: inhibition concentration required against coxsackievirus B4 was determined by plaque reduction assay
- Type: functional, organism-based
READOUT KIND: IC50

Sure, the documented IC50 for `O=C1N(CCCCCOc2ccc(-c3ccc(Cl)cc3)cc2)CCN1c1ccncc1` is 3.14 µM

These measurements were taken from ChEMBL document CHEMBL1137889.
